- Test System: PA83 protective antigen (Bacillus anthracis, UniProt P13423)
- Sequence (P13423 30-764): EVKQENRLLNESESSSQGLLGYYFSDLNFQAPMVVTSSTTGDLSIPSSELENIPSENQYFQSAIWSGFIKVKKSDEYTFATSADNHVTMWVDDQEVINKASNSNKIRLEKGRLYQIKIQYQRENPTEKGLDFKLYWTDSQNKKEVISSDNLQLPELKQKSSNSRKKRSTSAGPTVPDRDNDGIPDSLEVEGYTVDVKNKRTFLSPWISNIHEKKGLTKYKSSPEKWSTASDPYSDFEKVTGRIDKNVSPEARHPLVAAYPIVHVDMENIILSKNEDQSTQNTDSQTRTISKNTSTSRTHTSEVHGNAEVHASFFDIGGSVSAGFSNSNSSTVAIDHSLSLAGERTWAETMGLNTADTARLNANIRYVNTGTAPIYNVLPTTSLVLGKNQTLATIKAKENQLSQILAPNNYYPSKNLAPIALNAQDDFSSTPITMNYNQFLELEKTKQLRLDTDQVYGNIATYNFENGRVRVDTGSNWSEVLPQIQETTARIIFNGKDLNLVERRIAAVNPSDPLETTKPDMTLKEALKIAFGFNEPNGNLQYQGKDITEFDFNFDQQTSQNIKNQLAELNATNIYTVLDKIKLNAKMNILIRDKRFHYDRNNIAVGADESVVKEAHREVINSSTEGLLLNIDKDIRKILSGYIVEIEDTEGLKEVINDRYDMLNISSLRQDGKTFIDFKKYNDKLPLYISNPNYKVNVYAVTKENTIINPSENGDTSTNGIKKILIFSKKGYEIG
- Assay Text: SPR
Measured Quantity: Kd (nM)

v2 (antibody, V domains shown) VH: QVQLQESGPGLLKPSETLSLTCAVSGDSISSGYYWSWIRQSPGKGLEWIGHIYGSTADTKYNPSLRSRVTISKDTSKNQLSLQLRSVTAADTAVYYCARSGYNFWSGEYYGLDSWGQGAVVTVSS VL: AIQLTQSPSSLSAYVGDKVTITCHASQGINSWLAWYQQKPGKAPKLLIYKASSLQSGVPSRFSGSGSGTDYTLTISSLQSEDFASYYCLQYDSAPLAFGPGTKLDIK    0.66
J24-15 (antibody, V domains shown) VH: QVQLQESGPGLLKPSETLSLTCAVSGDSISGGYYWSWIRQSPGKGLEWIGHIYGSTADTRYNPSLKSRVTISKDTSKNQLSLQLRSVTAADTAVYYCARSGYNFWSGEYYGLDLWGQGAVVTVSS VL: AIQLTQSPSSLSAYVGDKVTITCHASQGINSWLAWYQQKPGKAPKLLIYKARSLQSGVPSRFSGSGSGTDYTLTISSLQSEDFASYYCLQYDSAPLAFGPGTKLDIK    0.88
J24-7 (antibody, V domains shown) VH: QVQLQESGPGLLKPSETLSLTCAVSGDSISGGYYWSWIRQSPGKGLEWIGHIYGSTADTRYNPSLKSRVTISKDTSKNQLSLQLRSVTAADTAVYYCARSGYNFWSGEYYGLDSWGQGAVVTVSS VL: AIQLTQSPSSLSAYVGDKVTITCRASQGINSWLAWYQQKPGKAPKLLIYKASSLQEGVPSRFSGSGSGTDYTLTISSLQSEDFASYYCLQYDSAPLAFGPGTKLDIK    0.78

# credit: patent US8507655
